Where do these numbers come from? They come from patent US11377442B2.

Biological target: NR2F6 (Homo sapiens, UniProt P10588)
Construct: expressed in transfected cells; also transient transfection
Sequence (P10588 whole entry): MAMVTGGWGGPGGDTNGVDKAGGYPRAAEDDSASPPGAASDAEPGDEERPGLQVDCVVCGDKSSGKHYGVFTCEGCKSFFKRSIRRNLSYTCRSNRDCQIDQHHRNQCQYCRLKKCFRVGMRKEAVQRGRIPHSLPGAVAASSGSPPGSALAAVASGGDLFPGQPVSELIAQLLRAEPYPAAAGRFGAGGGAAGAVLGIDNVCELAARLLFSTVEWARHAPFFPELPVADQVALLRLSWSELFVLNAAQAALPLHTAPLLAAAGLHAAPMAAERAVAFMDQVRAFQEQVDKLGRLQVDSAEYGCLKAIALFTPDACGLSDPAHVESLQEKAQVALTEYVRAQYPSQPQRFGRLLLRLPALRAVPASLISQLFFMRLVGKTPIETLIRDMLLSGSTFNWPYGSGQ
Test: NR2F6 agonist screening, Firefly signal cmpd/DMSO
Format: cell-based
Details: Table 9; repeat 1
Readout name: Firefly, cmpd/DMSO repeat 1

>  <Smiles notation>
COc1cccc2cc(S(=O)(=O)c3ccc(Cl)c(Cl)c3)c(=O)oc12

>  <Target>
NR2F6 (Homo sapiens, UniProt P10588)

>  <Firefly, cmpd/DMSO repeat 1>
1.9

$$$$

(a) COc1cccc2cc(S(=O)(=O)c3ccc(F)c(C)c3)c(=O)oc12
(b) CCOc1cccc2cc(S(=O)(=O)c3ccc(Br)cc3)c(=O)oc12
(c) CCOc1cccc2cc(S(=O)(=O)c3ccc(OC)c(OC)c3)c(=O)oc12
[Q] List the 3 entries from lowest Firefly, cmpd/DMSO repeat 1 to highest Firefly, cmpd/DMSO repeat 1 value. Please list the labels according to the requested order.
[A] b, a, c
